Exercise: for every item that follows, state its recorded SK-Br-3 pHER3 % inhibition.
Biological target: human HER3 endogenously expressed on human cancer cells (SK-Br-3, BT-474, MCF7) (human, UniProt P21860 20-1342)
Assay: cell-based or functional assay
Give bare numbers, in %.

# binder, readout, unit_name, measured_number
records = [
    ("MOR12606 (antibody, human IgG1, kappa, V domains shown, Tested as IgG) VH: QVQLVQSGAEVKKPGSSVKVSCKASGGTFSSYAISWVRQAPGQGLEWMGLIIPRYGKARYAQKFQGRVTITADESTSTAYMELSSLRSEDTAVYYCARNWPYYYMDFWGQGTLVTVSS VL: DIVLTQSPATLSLSPGERATLSCRASQNIVFNLAWYQQKPGQAPRLLIYDASNRATGVPARFSGSGSGTDFTLTISSLEPEDFAVYYCQQTKSKPSPTFGQGTKVEIKR", "SK-Br-3 pHER3 % inhibition", "%", 75),
]

Now look at this one.
Lab book: SK-Br-3 pHER3 % inhibition of MOR13661 (antibody, human IgG1, lambda, V domains shown) VH: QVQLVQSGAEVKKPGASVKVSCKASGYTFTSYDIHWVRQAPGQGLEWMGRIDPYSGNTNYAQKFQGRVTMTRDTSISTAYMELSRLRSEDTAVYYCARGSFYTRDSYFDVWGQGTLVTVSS VL: DIALTQPASVSGSPGQSITISCTGTSSDVGTYNQVSWYQQHPGKAPKLMIYGVSKRPSGVSNRFSGSKSGNTASLTISGLQAEDEADYYCGSRDSWAHVFGGGTKLTVLG noted as 55

These entries and their values trace back to patent US20130251703A1.
